B1: library; a variant is named by its letters at N, in order (parent)
chain: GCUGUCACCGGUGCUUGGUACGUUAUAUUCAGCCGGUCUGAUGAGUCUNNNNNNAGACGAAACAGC

Variants of: B1
Test: normalized RNA/DNA level without ligand (relative to sTRSVctl = 100) (log10 (% of sTRSVctl)); HEK293T overexpressing SLC46A1; higher = less ribozyme self-cleavage, higher mRNA level
Settings: without (6R,S)-folinic acid; ligand present: no
ASSAY_READOUT: normalized RNA/DNA level without ligand (log10)
Lab note: jot the number down without any unit.

Field: example entries. Status: answers known.
AAAAGC = 2
GGUUCU = 2.06
AGUUAU = 1.98
ACCCCC = 2.04
AACAGG = 1.9

Req: Identify measured normalized RNA/DNA level without ligand (log10) associated with UGUUCG
Resp: 1.76

Req: Identify measured normalized RNA/DNA level without ligand (log10) associated with GGGACG
Resp: 2.04

Req: Identify measured normalized RNA/DNA level without ligand (log10) associated with CUUAGG
Resp: 2.04

Req: Identify measured normalized RNA/DNA level without ligand (log10) associated with UAUCUC
Resp: 2.05

Req: Identify measured normalized RNA/DNA level without ligand (log10) associated with AUGAGU
Resp: 1.79

Req: Identify measured normalized RNA/DNA level without ligand (log10) associated with GUUAGU
Resp: 1.98

These measurements were taken from the supplement of paper PMC6757056.
